# Target Or System: HCoV-HKU1 Mpro (Human coronavirus HKU1)
# Measurement Notes: HCoV-HKU1 Mpro enzymatic inhibition assay (fluorescence)
# Assay type: biochemical
Value Type: pIC50
# pIC50: negative log10 of molar concentration; output just the value

Prompt line: I'm curious: which pIC50 was measured for `Cc1cccc([C@@H](C)C(=O)N2C[C@H]3[C@@H]([C@H]2C(=O)N[C@H](C=O)C[C@@H]2CCNC2=O)C3(C)C)c1` tested on HCoV-HKU1 Mpro (Human coronavirus HKU1)?
Response line: 8.04

Prompt line: I'm curious: which pIC50 was measured for `CCOc1ccc2[nH]c(C(=O)N3C[C@H]4[C@@H]([C@H]3C(=O)N[C@H](C=O)C[C@@H]3CCNC3=O)C4(C)C)cc2c1` tested on HCoV-HKU1 Mpro (Human coronavirus HKU1)?
Response line: 7.13

Prompt line: I'm curious: which pIC50 was measured for `CC1(C)[C@@H]2[C@@H](C(=O)N[C@H](C=O)C[C@@H]3CCNC3=O)N(C(=O)c3cc4cccc(Cl)c4[nH]3)C[C@@H]21` tested on HCoV-HKU1 Mpro (Human coronavirus HKU1)?
Response line: 7.66

Prompt line: I'm curious: which pIC50 was measured for `O=C[C@H](C[C@@H]1CCNC1=O)NC(=O)[C@@H]1C[C@@H](C2CCCCC2)CN1C(=O)c1cc2c(F)cccc2[nH]1` tested on HCoV-HKU1 Mpro (Human coronavirus HKU1)?
Response line: 7.80

Prompt line: I'm curious: which pIC50 was measured for `CC1(C)[C@@H]2[C@@H](C(=O)N[C@H](C=O)C[C@@H]3CCNC3=O)N(C(=O)C3(c4ccccc4)CC3)C[C@@H]21` tested on HCoV-HKU1 Mpro (Human coronavirus HKU1)?
Response line: 7.94

Prompt line: I'm curious: which pIC50 was measured for `CC1(C)[C@@H]2[C@@H](C(=O)N[C@H](C=O)C[C@@H]3CCNC3=O)N(C(=O)c3cc4cccc(F)c4[nH]3)C[C@@H]21` tested on HCoV-HKU1 Mpro (Human coronavirus HKU1)?
Response line: 7.60

* * *

# Target Or System: HCoV-HKU1 Mpro (Human coronavirus HKU1, UniProt P0C6X2)
# Sequence (P0C6X2 3335-3637 limits assumed): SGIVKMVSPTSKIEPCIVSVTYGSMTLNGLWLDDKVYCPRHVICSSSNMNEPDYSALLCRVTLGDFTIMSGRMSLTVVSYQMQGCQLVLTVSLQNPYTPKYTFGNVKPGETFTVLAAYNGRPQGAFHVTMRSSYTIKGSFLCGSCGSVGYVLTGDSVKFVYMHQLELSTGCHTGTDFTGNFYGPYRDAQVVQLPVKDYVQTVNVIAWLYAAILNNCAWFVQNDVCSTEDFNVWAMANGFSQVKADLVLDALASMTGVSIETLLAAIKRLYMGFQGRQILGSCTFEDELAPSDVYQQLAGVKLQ
# Measurement Notes: HCoV-HKU1 Mpro enzymatic inhibition assay (fluorescence)
# Type: biochemical
Give pIC50 for every item shown.
# pIC50: negative log10 of molar concentration; output just the value

Prompt line: Sample `C=C1C[C@@H](C(=O)N[C@H](C=O)C[C@@H]2CCNC2=O)N(C(=O)c2cc3ccccc3[nH]2)C1` — what was its pIC50?
Response line: 7.54

Prompt line: Sample `Cc1cccc2c1cc(C(=O)N1C[C@H]3[C@@H]([C@H]1C(=O)N[C@H](C=O)C[C@@H]1CCNC1=O)C3(C)C)n2C` — what was its pIC50?
Response line: 6.49

Prompt line: Sample `Cn1c(C(=O)N2C[C@H]3[C@@H]([C@H]2C(=O)N[C@H](C=O)C[C@@H]2CCNC2=O)C3(C)C)cc2cc(Cl)ccc21` — what was its pIC50?
Response line: 7.32

Prompt line: Sample `O=C[C@H](C[C@@H]1CCNC1=O)NC(=O)[C@@H]1CC2(CCC2)CN1C(=O)c1cc2ccccc2[nH]1` — what was its pIC50?
Response line: 7.75

Prompt line: Sample `CC1(C)[C@@H]2[C@@H](C(=O)N[C@H](C=O)C[C@@H]3CCNC3=O)N(C(=O)CC3CCOCC3)C[C@@H]21` — what was its pIC50?
Response line: 7.47

Prompt line: Sample `N#Cc1cccc2cc(C(=O)N3C[C@H](C4CCCCC4)C[C@H]3C(=O)N[C@H](C=O)C[C@@H]3CCNC3=O)[nH]c12` — what was its pIC50?
Response line: 7.78

* * *

Give IC50 for every item shown.
# Target Or System: SARS-CoV-1 Mpro (Severe acute respiratory syndrome coronavirus)
# Measurement Notes: biochemical
Hey, just the number and the unit after it is fine.

Prompt line: Sample `O=C[C@H](C[C@@H]1CCNC1=O)NC(=O)[C@@H]1C[C@@H](C2CCCCC2)CN1C(=O)c1cc2c(F)cccc2[nH]1` — what was its IC50?
Response line: 97 nM

Prompt line: Sample `CC1(C)[C@@H]2[C@@H](C(=O)N[C@H](C=O)C[C@@H]3CCNC3=O)N(C(=O)C3CCCC3)C[C@@H]21` — what was its IC50?
Response line: 473 nM

Prompt line: Sample `O=C[C@H](C[C@@H]1CCNC1=O)NC(=O)[C@@H]1C[C@@H]2CCC[C@@H]2N1C(=O)c1cc2ccccc2[nH]1` — what was its IC50?
Response line: 874 nM

* * *

# Target Or System: HCoV-OC43 Mpro (Human coronavirus OC43)
# Sequence (P0C6X6 3247-3549 limits assumed): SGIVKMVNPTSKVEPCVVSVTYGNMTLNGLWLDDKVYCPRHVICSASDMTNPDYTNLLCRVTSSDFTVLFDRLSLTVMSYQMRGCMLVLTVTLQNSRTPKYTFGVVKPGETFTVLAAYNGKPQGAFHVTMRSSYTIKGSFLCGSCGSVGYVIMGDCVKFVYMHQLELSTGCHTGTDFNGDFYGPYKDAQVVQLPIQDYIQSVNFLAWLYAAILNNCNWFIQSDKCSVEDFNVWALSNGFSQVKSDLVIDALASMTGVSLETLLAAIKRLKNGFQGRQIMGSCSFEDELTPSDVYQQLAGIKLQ
# Measurement Notes: HCoV-OC43 Mpro enzymatic inhibition assay (fluorescence)
# Assay type: biochemical
# Setup Conditions: read-out: Mpro_OC43 mean IC50; mean; 25 nM protein, 12.5 μM substrate; 30 min pre-incubation, 60 min at 30° C.
Value Type: pIC50
# pIC50: negative log10 of molar concentration; output just the value

Prompt line: Sample `CC1(C)[C@@H]2[C@@H](C(=O)N[C@H](C=O)C[C@@H]3CCNC3=O)N(C(=O)CC3CCCCC3)C[C@@H]21` — what was its pIC50?
Response line: 7.25

* * *

Give pIC50 for every item shown.
# Target Or System: MERS Mpro (Middle East respiratory syndrome-related coronavirus, UniProt K9N7C7)
# Sequence (K9N7C7 3248-3553 limits assumed): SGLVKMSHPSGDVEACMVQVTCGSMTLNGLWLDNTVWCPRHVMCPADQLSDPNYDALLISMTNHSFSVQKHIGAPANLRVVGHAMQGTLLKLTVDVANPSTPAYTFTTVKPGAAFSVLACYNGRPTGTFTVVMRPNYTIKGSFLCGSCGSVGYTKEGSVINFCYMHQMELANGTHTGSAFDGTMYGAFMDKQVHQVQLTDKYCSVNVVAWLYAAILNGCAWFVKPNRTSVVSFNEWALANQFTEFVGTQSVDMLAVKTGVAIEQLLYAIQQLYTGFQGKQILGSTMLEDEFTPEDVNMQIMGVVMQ
# Measurement Notes: biochemical
# Set-up: species or system MERS-CoV
# pIC50: negative log10 of molar concentration; output just the value

Prompt line: I'm curious: which pIC50 was measured for Cc1cccc2[nH]c(C(=O)N3C[C@H]4[C@@H]([C@H]3C(=O)N[C@H](C=O)C[C@@H]3CCNC3=O)C4(C)C)cc12 [Compound 85] tested on MERS Mpro (Middle East respiratory syndrome-related coronavirus, UniProt K9N7C7)?
Response line: 6.59

Prompt line: I'm curious: which pIC50 was measured for CC1(C)[C@@H]2[C@@H](C(=O)N[C@H](C=O)C[C@@H]3CCNC3=O)N(C(=O)CC3CCCCC3)C[C@@H]21 [Compound 53] tested on MERS Mpro (Middle East respiratory syndrome-related coronavirus, UniProt K9N7C7)?
Response line: 6.49

Prompt line: I'm curious: which pIC50 was measured for Cc1cccc2c1cc(C(=O)N1C[C@H]3[C@@H]([C@H]1C(=O)N[C@H](C=O)C[C@@H]1CCNC1=O)C3(C)C)n2C [Compound 118] tested on MERS Mpro (Middle East respiratory syndrome-related coronavirus, UniProt K9N7C7)?
Response line: 5.48

Prompt line: I'm curious: which pIC50 was measured for CC(C)(C(=O)N1C[C@H]2[C@@H]([C@H]1C(=O)N[C@H](C=O)C[C@@H]1CCNC1=O)C2(C)C)c1ccccc1 [Compound 48] tested on MERS Mpro (Middle East respiratory syndrome-related coronavirus, UniProt K9N7C7)?
Response line: 6.31

Prompt line: I'm curious: which pIC50 was measured for Cc1ccc(F)c2[nH]c(C(=O)N3C[C@H]4[C@@H]([C@H]3C(=O)N[C@H](C=O)C[C@@H]3CCNC3=O)C4(C)C)cc12 [Compound 77] tested on MERS Mpro (Middle East respiratory syndrome-related coronavirus, UniProt K9N7C7)?
Response line: 6.40

* * *

Give IC50 for every item shown.
# Target Or System: SARS-CoV-2 Mpro (Severe acute respiratory syndrome coronavirus 2)
# Measurement Notes: SARS-CoV-2 Mpro enzymatic inhibition assay (fluorescence)
# Type: biochemical
Please give a number only; it is taken to be in nM.

Prompt line: Sample CC1(C)[C@@H]2[C@@H](C(=O)N[C@H](C=O)C[C@@H]3CCNC3=O)N(C(=O)c3cc4c(C5CC5)cccc4[nH]3)C[C@@H]21 [Compound 41] — what was its IC50?
Response line: 21.8

Prompt line: Sample O=C[C@H](C[C@@H]1CCNC1=O)NC(=O)[C@@H]1CC(F)(F)CN1C(=O)c1cc2ccccc2[nH]1 [Compound 115] — what was its IC50?
Response line: 102

Prompt line: Sample O=C[C@H](C[C@@H]1CCNC1=O)NC(=O)[C@@H]1C[C@@H](C2CCCCC2)CN1C(=O)c1cc2c(F)cccc2[nH]1 [Compound 38] — what was its IC50?
Response line: 21

* * *

Give IC50 for every item shown.
# Target Or System: HCoV-NL63 Mpro (Human coronavirus NL63)
# Sequence (P0C6X5 2940-3242 limits assumed): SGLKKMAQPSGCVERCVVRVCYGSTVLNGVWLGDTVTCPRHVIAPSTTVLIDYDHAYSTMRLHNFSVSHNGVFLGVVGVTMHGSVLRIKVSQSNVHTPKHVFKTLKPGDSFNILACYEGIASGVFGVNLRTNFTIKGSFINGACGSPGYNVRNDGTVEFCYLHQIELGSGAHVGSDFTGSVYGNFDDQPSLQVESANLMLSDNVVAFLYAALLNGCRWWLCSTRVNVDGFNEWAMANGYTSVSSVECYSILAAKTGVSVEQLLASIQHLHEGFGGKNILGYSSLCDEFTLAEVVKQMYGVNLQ
# Measurement Notes: HCoV-NL63 Mpro enzymatic inhibition assay (fluorescence)
# Format: biochemical
Hey, just the number and the unit after it is fine.

Prompt line: Sample CC1CCC(CC(=O)N2C[C@H]3[C@@H]([C@H]2C(=O)N[C@H](C=O)C[C@@H]2CCNC2=O)C3(C)C)CC1 (stereo partly drawn) — what was its IC50?
Response line: 61.3 nM

Prompt line: Sample `CC1(C)[C@@H]2[C@@H](C(=O)N[C@H](C=O)C[C@@H]3CCCNC3=O)N(C(=O)c3cc4ccccc4[nH]3)C[C@@H]21` — what was its IC50?
Response line: 50.6 nM

Prompt line: Sample `CC1(C)[C@@H]2[C@@H](C(=O)N[C@H](C=O)C[C@@H]3CCNC3=O)N(C(=O)C3(c4ccccc4)CC3)C[C@@H]21` — what was its IC50?
Response line: 73.7 nM

Prompt line: Sample `CC1(C)C[C@@H](C(=O)N[C@H](C=O)C[C@@H]2CCNC2=O)N(C(=O)c2cc3c(F)cccc3[nH]2)C1` — what was its IC50?
Response line: 22.2 nM

Prompt line: Sample `CC1(C)[C@@H]2[C@@H](C(=O)N[C@H](C#N)C[C@@H]3CCNC3=O)N(C(=O)c3cc4cccc(Cl)c4[nH]3)C[C@@H]21` — what was its IC50?
Response line: 3970 nM

Prompt line: Sample `CC1(C)[C@@H]2[C@@H](C(=O)N[C@H](C=O)C[C@@H]3CCNC3=O)N(C(=O)C3(O)CCCCC3)C[C@@H]21` — what was its IC50?
Response line: 344 nM
